This collection of values is drawn from paper PMC8803906.

- assay notes: in vivo
- study conditions: male, Landrace/Doric Cross, pig, in vivo, po, 10 mg/kg
attribute measured: Cmax (ng/mL)
Numbers only; they are read as ng/mL.

Item COc1ccc(Cc2cnc(N)nc2N)cc1OC [D0, reference compound] has what recorded Cmax?
490

###

- assay notes: in vivo
- study conditions: male, Landrace/Doric Cross, pig, in vivo, po, 10 mg/kg
attribute measured: MRT inf (h)
Number only, in h; omit the unit.

Value lookup for MRT inf; key = COc1ccc(Cc2cnc(N)nc2N)cc1OC [D0, reference compound]
93

###

- assay notes: in vivo
- study conditions: male, Landrace/Doric Cross, pig, in vivo, po, 10 mg/kg
attribute measured: AUC(0-inf) (ng·h/mL)
Form entry: value (ng·h/mL) — number only.

// AUC(0-inf) lookup, key: COc1ccc(Cc2cnc(N)nc2N)cc1OC [D0, reference compound]
33900

###

- assay notes: in vivo
- study conditions: both, Cobb 500 broiler, in vivo, po, 10 mg/kg
attribute measured: half-life (h)
Numbers only; they are read as h.

So what's the measured half-life for this one? COc1ccc(Cc2cnc(N)nc2N)cc1OC [D0, reference compound]
48.3

###

- assay notes: in vivo
- study conditions: both, Cobb 500 broiler, in vivo, po, 10 mg/kg
attribute measured: Cmax

GET /values?readout=Cmax&item= COc1ccc(Cc2cnc(N)nc2N)cc1OC [D0, reference compound]
1550 ng/mL

###

- assay notes: in vivo
- study conditions: male, Landrace/Doric Cross, pig, in vivo, po
attribute measured: AUC0−∞ (ng·h/mL)
Reply numerically in ng·h/mL, unit not repeated.

Could you tell me which AUC0−∞ is on file for COc1ccc(Cc2cnc(N)nc2N)cc1OC [D0, reference compound] ?
33900

###

- assay notes: in vivo
- study conditions: both, Cobb 500 broiler, in vivo, po, 10 mg/kg
- From the text: Four healthy castrated male pigs (Landrace/Doric Cross, 60-d-old, 30 ± 2 kg) were supplied by the China Breeding Pig Testing Center of Huazhong Agricultural University (Wuhan, China). […] Plasma samples were completely thawed at room temperature. Each sample was divided into two parts, one was used for the assay of total radioactivity, and the other was subjected to a MCX Solid Phase Extraction (SPE) procedure for the qualitative and quantitative analysis of DVD-related metabolites. […]
attribute measured: MRT inf (h)
Give a bare numeral; the unit h is implied.

Fill in the blank: the reported MRT inf of COc1ccc(Cc2cnc(N)nc2N)cc1OC [D0, reference compound] is ____.
66.2

###

- assay notes: Plasma pharmacokinetics of DVD and its metabolites in chickens after a single oral dose of ^3H-DVD (radioactive tracing, LC-v.ARC/MS-IT-TOF)
- study conditions: both, Cobb 500 broiler, chicken, in vivo, 10 mg/kg BW
attribute measured: concentration at 168 h (ng/mL)
Please give a number only; it is taken to be in ng/mL.

Requested read-out: concentration at 168 h. Entry: COc1ccc(Cc2cnc(N)nc2N)cc1OC [D0, reference compound]
90

###

- assay notes: in vivo
- study conditions: both, Cobb 500 broiler, in vivo, po, 10 mg/kg
- Text: Four healthy castrated male pigs (Landrace/Doric Cross, 60-d-old, 30 ± 2 kg) were supplied by the China Breeding Pig Testing Center of Huazhong Agricultural University (Wuhan, China). […] Plasma samples were completely thawed at room temperature. Each sample was divided into two parts, one was used for the assay of total radioactivity, and the other was subjected to a MCX Solid Phase Extraction (SPE) procedure for the qualitative and quantitative analysis of DVD-related metabolites. […]
attribute measured: AUC(0-inf)

Look up AUC(0-inf): COc1ccc(Cc2cnc(N)nc2N)cc1OC [D0, reference compound]
55300 ng·h/mL
